Please respond with reported Absorbance Max for every item in the list.
Assay: UV/VIS absorption spectra
Assay type: physicochemical
Details: 10 μM compound in 50 mM potassium phosphate buffer (pH 7.0)
One number for each entry, in nm.

compound	Absorbance Max, nm
CCN(CCC[N+](C)(C)CC)C1=C/C(=C/c2sc3ccccc3[n+]2C)c2ccccc2N1c1ccccc1.[I-].[I-]	496
CCCN(CCC[N+](C)(C)CCC)C1=CC(=Cc2sc3ccccc3[n+]2C)c2ccc(OC)cc2N1c1ccccc1.[I-].[I-]	494
CCCN(CCC[N+](C)(C)Cc1cccc(OC)c1)C1=C/C(=C/c2sc3ccccc3[n+]2C)c2ccccc2N1c1ccccc1.[Br-].[Cl-]	502
CCN(CCN(C)C)C1=C/C(=C/c2sc3ccccc3[n+]2C)c2ccc(OC)cc2N1c1ccccc1.[I-]	496
CCCCN(CCC[N+](C)(C)CC)C1=C/C(=C/c2sc3ccccc3[n+]2C)c2ccccc2N1c1ccccc1.[I-].[I-]	496
CCN(CCCN(C)C)C1=C/C(=C/c2sc3ccccc3[n+]2C)c2ccccc2N1c1ccccc1.[I-]	495
C[n+]1c(/C=C2/C=C(n3cnc4ccccc43)N(c3ccccc3)c3ccccc32)sc2ccccc21.[Cl-]	518
CCN(CC[N+](C)(C)Cc1ccccc1)C1=C/C(=C/c2sc3ccccc3[n+]2C)c2ccc(OC)cc2N1c1ccccc1.[I-].[I-]	500

Hey, quick one: what's Absorbance Max for each of these?
1. CN(C)CCCC1=C/C(=C/c2sc3ccccc3[n+]2C)c2ccccc2N1c1ccccc1
2. C[n+]1c(/C=C2/C=C(CCC[N+](C)(C)C)N(c3ccccc3)c3ccccc32)sc2ccccc21
3. CCCN(CCCN(C)C)C1=C/C(=C/c2sc3ccccc3[n+]2C)c2ccccc2N1c1ccccc1 [Compound 1, reference compound]
4. CCN(CCC[N+](C)(C)Cc1ccccc1)C1=C/C(=C/c2sc3ccccc3[n+]2C)c2ccccc2N1c1ccccc1.[Br-].[I-]
5. CCCN(CCC[N+](C)(C)CCO)C1=C/C(=C/c2sc3ccccc3[n+]2C)c2ccccc2N1c1ccccc1.[I-].[I-]
6. CCCN(CCC[N+](C)(C)C)C1=CC(=Cc2sc3ccccc3[n+]2C)c2ccc(OC)cc2N1c1ccccc1.[I-].[I-]
7. CCC[N+](C)(C)CCCN(C)C1=C/C(=C/c2sc3ccccc3[n+]2C)c2ccccc2N1c1ccccc1.[I-].[I-]
8. CCN(CCC[N+](C)(C)CCO)C1=C/C(=C/c2sc3ccccc3[n+]2C)c2ccccc2N1c1ccccc1.[I-].[I-]

1. 527
2. 527
3. 500
4. 497
5. 501
6. 494
7. 497
8. 496

Would you be so kind as to report Absorbance Max for each listed record?
1. CN(CCC[N+](C)(C)CCO)C1=C/C(=C/c2sc3ccccc3[n+]2C)c2ccccc2N1c1ccccc1.[I-].[I-]
2. C[n+]1c(/C=C2/C=C(n3ccnc3)N(c3ccccc3)c3ccccc32)sc2ccccc21.[I-]
3. CCN(CCC[N+](C)(C)Cc1cccc(OC)c1)C1=CC(=Cc2sc3ccccc3[n+]2C)c2ccc(OC)cc2N1c1ccccc1.[Br-].[I-]

497
514
490

Please go through the list and note Absorbance Max for each compound.
1. CCN(CC[N+](C)(C)CC)C1=C/C(=C/c2sc3ccccc3[n+]2C)c2ccc(OC)cc2N1c1ccccc1.[I-].[I-]
2. CCC[N+](C)(C)CCCN(CC)C1=CC(=Cc2sc3ccccc3[n+]2C)c2ccc(OC)cc2N1c1ccccc1.[I-].[I-]

496
490

Required: Absorbance Max, one value per compound below.
1. CN(CCC[N+](C)(C)C)C1=C/C(=C/c2sc3ccccc3[n+]2C)c2ccccc2N1c1ccccc1.[I-].[I-]
2. CCCN(CCC[N+](C)(C)CC)C1=C/C(=C/c2sc3ccccc3[n+]2C)c2ccccc2N1c1ccccc1.[Cl-].[I-]
3. CCN(CCC[N+](C)(C)C)C1=C/C(=C/c2sc3ccccc3[n+]2C)c2ccccc2N1c1ccccc1.[I-].[I-]
4. CCCCN(CCC[N+](C)(C)C)C1=C/C(=C/c2sc3ccccc3[n+]2C)c2ccccc2N1c1ccccc1.[I-].[I-]
5. CCCN(CCC[N+](C)(C)CCO)C1=CC(=Cc2sc3ccccc3[n+]2C)c2ccc(OC)cc2N1c1ccccc1.[I-].[I-]
6. CN(C)CCCN(C)C1=C/C(=C/c2sc3ccccc3[n+]2C)c2ccccc2N1c1ccccc1.[I-]
7. CCN(CC[N+](C)(C)Cc1cccc(OC)c1)C1=C/C(=C/c2sc3ccccc3[n+]2C)c2ccccc2N1c1ccccc1.[Br-].[I-]

1: 497; 2: 501; 3: 496; 4: 496; 5: 494; 6: 491; 7: 507

Name the reported Absorbance Max value associated with the compound CCCCN(CCC[N+](C)(C)CCO)C1=C/C(=C/c2sc3ccccc3[n+]2C)c2ccccc2N1c1ccccc1.[I-].[I-]
496

* * *

Answer each item with its documented Ratio to R1, fluorescent emission with dsDNA.
Test system: dsDNA
Test: Microplate fluorescence when bound to dsDNA
Type: binding
Settings: Example 4, Table 5; 500 ng/mL dsDNA
One number for each entry.

These solved cases illustrate the format of a correct answer.
compound	numeric-result
CCCN(CCCN(C)C)C1=CC(=Cc2sc3ccccc3[n+]2C)c2ccc(OC)cc2N1c1ccccc1.[I-] [Compound 41]	1.9
CCCN(CCC[N+](C)(C)C)C1=CC(=Cc2sc3ccccc3[n+]2C)c2ccccc2N1c1ccccc1.[Cl-].[I-] [Compound 2]	1.8

For each of the items listed, what is its Ratio to R1, fluorescent emission with dsDNA?
1. CN(C)CCCN(CCCN(C)C)C1=CC(=Cc2sc3ccccc3[n+]2C)c2ccccc2N1c1ccccc1.[I-] [Compound R1, reference compound]
2. CCCN(CCC[N+](C)(C)C)C1=CC(=Cc2sc3ccccc3[n+]2C)c2ccc(OC)cc2N1c1ccccc1.[I-].[I-] [Compound 42]
3. CCN(CCCN(C)C)C1=CC(=Cc2sc3ccccc3[n+]2C)c2ccc(OC)cc2N1c1ccccc1.[I-] [Compound 48]
4. CCCCN(CCCN(C)C)C1=CC(=Cc2sc3ccccc3[n+]2C)c2ccc(OC)cc2N1c1ccccc1.[I-] [Compound 34]
5. COc1ccc2c(c1)N(c1ccccc1)C(N(CCC[N+](C)(C)C)CCC[N+](C)(C)C)=CC2=Cc1sc2ccccc2[n+]1C.I [Compound R2, reference compound]

1. 1.0
2. 2.3
3. 1.9
4. 2.1
5. 1.7

* * *

Provide the recorded Absorbance Max for the entries that follow.
Assay: UV/VIS absorption spectra
Type: physicochemical
Conditions: 10 μM compound in 50 mM potassium phosphate buffer (pH 7.0)
Give bare numbers, in nm.

given-smiles	numeric-result
CCN(CC[N+](C)(C)C)C1=C/C(=C/c2sc3ccccc3[n+]2C)c2ccccc2N1c1ccccc1.[Cl-].[I-]	506
COc1cccc(C[N+](C)(C)CCCN(C)C2=C/C(=C/c3sc4ccccc4[n+]3C)c3ccccc3N2c2ccccc2)c1.[Br-].[I-]	498

Please report the recorded Absorbance Max for CCN(CC[N+](C)(C)Cc1ccccc1)C1=C/C(=C/c2sc3ccccc3[n+]2C)c2ccccc2N1c1ccccc1.[Br-].[I-] .
507

* * *

Would you kindly list Fluorescence Enhancement for each of these compounds?
Tested on: calf thymus DNA
Assay: Fluorescence emission and enhancement of compounds bound to calf thymus DNA
Assay type: binding
Conditions: 0.8 μM compound with 500 ng/ml calf thymus DNA in TE buffer; emission area 500-715 nm compared to compound 1, defined as 1000-fold
Give the number first and the unit second.

given-smiles	target-under-test	result
CCCCN(CCC[N+](C)(C)CCC)C1=CC(=Cc2sc3ccccc3[n+]2C)c2ccc(OC)cc2N1c1ccccc1.[I-].[I-]	calf thymus DNA	1089 fold
CCN(CCC[N+](C)(C)CCO)C1=C/C(=C/c2sc3ccccc3[n+]2C)c2ccc(OC)cc2N1c1ccccc1	calf thymus DNA	1031 fold
CCCN(CCC[N+](C)(C)CC)C1=CC(=Cc2sc3ccccc3[n+]2C)c2ccc(OC)cc2N1c1ccccc1.[I-].[I-]	calf thymus DNA	1033 fold
CN(CCC[N+](C)(C)C)C1=C/C(=C/c2sc3ccccc3[n+]2C)c2ccccc2N1c1ccccc1.[I-].[I-]	calf thymus DNA	639 fold
CCCN(CCC[N+](C)(C)Cc1cccc(OC)c1)C1=C/C(=C/c2sc3ccccc3[n+]2C)c2ccccc2N1c1ccccc1.[Br-].[Cl-]	calf thymus DNA	978 fold

Give Fluorescence Enhancement for all compounds that follow.
1. CC[N+](C)(C)CCCN(C)C1=C/C(=C/c2sc3ccccc3[n+]2C)c2ccccc2N1c1ccccc1.[I-].[I-]
2. CCCN(CCC[N+](C)(C)CCC)C1=C/C(=C/c2sc3ccccc3[n+]2C)c2ccccc2N1c1ccccc1.[I-].[I-]
3. CCN(CC[N+](C)(C)CCO)C1=C/C(=C\c2sc3ccccc3[n+]2C)c2ccc(OC)cc2N1c1ccccc1.[I-].[I-]
4. CCCN(CCC[N+](C)(C)CC)C1=C/C(=C/c2sc3ccccc3[n+]2C)c2ccccc2N1c1ccccc1.[Cl-].[I-]
5. CCCN(CCC[N+](C)(C)CCC)C1=CC(=Cc2sc3ccccc3[n+]2C)c2ccc(OC)cc2N1c1ccccc1.[I-].[I-]

["622 fold", "925 fold", "863 fold", "997 fold", "1101 fold"]

For every item in the list below, what is its measured Fluorescence Enhancement?
1. CCN(CCN(C)C)C1=C/C(=C/c2sc3ccccc3[n+]2C)c2ccc(OC)cc2N1c1ccccc1.[I-]
2. C[n+]1ccn(C2=C/C(=C/c3sc4ccccc4[n+]3C)c3ccccc3N2c2ccccc2)c1.[I-].[I-]
3. CCC[N+](C)(C)CCN(CC)C1=C/C(=C/c2sc3ccccc3[n+]2C)c2ccccc2N1c1ccccc1.[I-].[I-]

908 fold
0.3 fold
642 fold
